- target: human EP2 receptor (Homo sapiens)
- Sequence (P43116 whole entry): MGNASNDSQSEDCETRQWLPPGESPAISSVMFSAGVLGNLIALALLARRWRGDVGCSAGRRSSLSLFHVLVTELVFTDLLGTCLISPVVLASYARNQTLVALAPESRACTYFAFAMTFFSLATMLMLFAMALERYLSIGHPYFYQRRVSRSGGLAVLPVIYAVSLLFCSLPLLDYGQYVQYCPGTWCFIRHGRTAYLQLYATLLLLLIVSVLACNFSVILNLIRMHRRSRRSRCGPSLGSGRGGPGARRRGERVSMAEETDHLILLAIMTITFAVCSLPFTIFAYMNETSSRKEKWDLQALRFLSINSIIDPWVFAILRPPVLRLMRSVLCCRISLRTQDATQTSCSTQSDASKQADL
- testDescription: Measurement of EP2 agonist activity (cAMP in HEK293 cells expressing human EP2 receptor)
- measurementSetup: cAMP increase in HEK293 cells expressing human EP2 receptor, 30 minutes
measuredAttribute: pEC50
Value format note: pEC50 is -log10 of concentration (mol/L); just state the number.

Ask: Requested field: pEC50. Item: CCCCN(C)c1ccc(CN(Cc2cccc(NCC(=O)O)n2)S(=O)(=O)c2ccccn2)cc1 [Example 7]
Result: 8.92

Data origin, for the record: patent US20120184747A1
